The reported measurements were obtained from patent US9561239B2.

target: P dimers of VA387 (GII.4) binding to saliva HBGAs (Norovirus GII.4 (Human calicivirus NLV/VA98387/1998), UniProt Q913Z3); assay: Saliva-based NoV/HBGA blocking assay; set-up: species or system Norovirus VA387 (GII.4); conditions: Activity (IC50), blocking the binding of NoV P dimer to HBGAs; given as range or bound
Sequence (Q913Z3 214-539): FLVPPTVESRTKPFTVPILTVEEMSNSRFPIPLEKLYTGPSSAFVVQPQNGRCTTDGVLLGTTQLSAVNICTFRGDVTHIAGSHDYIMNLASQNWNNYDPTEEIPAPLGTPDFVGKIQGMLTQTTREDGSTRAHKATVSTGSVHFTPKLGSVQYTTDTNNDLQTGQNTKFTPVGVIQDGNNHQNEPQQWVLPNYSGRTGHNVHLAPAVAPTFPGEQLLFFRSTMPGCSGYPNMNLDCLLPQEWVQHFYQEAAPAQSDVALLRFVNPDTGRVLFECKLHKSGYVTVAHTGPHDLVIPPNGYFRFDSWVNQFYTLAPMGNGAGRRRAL
pIC50: −log10 of the molar value.
Consider the following molecules; for each one, report its pIC50.

Look up pIC50: CC(=O)C1=CCC2[C@@H]3CC=C4C[C@H](O)CC[C@]4(C)C3CC[C@]12C (some centres unmarked)
4.40 to 4.70

Look up pIC50: O=C1CC(c2ccc([N+](=O)[O-])cc2)c2ccc3ccccc3c2N1 (centres unmarked)
4.40 to 4.70

Look up pIC50: C[C@]12CC[C@H](O)C=C1CC[C@@H]1C2CC[C@@]2(C)C1CC[C@@]21CCC(=O)O1 (some centres unmarked)
4.40 to 4.70

Look up pIC50: Cc1noc2c1C1(C)CCC3C(CC=C4CC(O)CCC43C)C1C2 (centres unmarked)
4.40 to 4.70

Look up pIC50: Nc1ccc2c(c1)C1C=CCC1C(c1ccc([N+](=O)[O-])cc1)N2 (centres unmarked)
4.70 to 5.00

Look up pIC50: CC(=O)C1CCC2C3CC[C@H]4CC(O)CCC4(C)C3CCC12C (some centres unmarked)
5.00 to 6.00

Look up pIC50: CC(=O)OCC(=O)C1CCC2C3CC=C4CC(O)CCC4(C)C3CCC12C (centres unmarked)
4.40 to 4.70

Look up pIC50: "C[C@]12CC[C@H]3[C@@H](CCC4=C/C(=N/OCC(=O)NCC(=O)O)CC[C@@]43C)[C@@H]1CC[C@H]2O"
4.70 to 5.00

Look up pIC50: O=[N+]([O-])c1ccc2c(c1)C1C=CCC1C(C1CC=CCC1)N2 (centres unmarked)
4.70 to 5.00

Look up pIC50: CC12CCC3C(CCC4CC(=O)CCC43C)C1CCC2O (centres unmarked)
4.40 to 4.70

Look up pIC50: CNc1cc([N+](=O)[O-])cc2c1NC(c1ccccn1)C1CC=CC21 (centres unmarked)
4.40 to 4.70

Look up pIC50: Cc1ccc(C2CC(=O)Nc3c2ccc2ccccc32)cc1[N+](=O)[O-] (centres unmarked)
4.40 to 4.70

Look up pIC50: O=C(O)c1ccc(C2Nc3c(F)cccc3C3C=CCC32)cc1 (centres unmarked)
4.40 to 4.70

Look up pIC50: "CC1(C)CC(=O)C2=C(C1)c1c(ccc3ccccc13)NC2"
4.70 to 5.00
